Attribution: the kinase profiling compilation of Christmann-Franck et al. (2016)

# tgt: PRKCE (human) (UniProt Q02156)
# Sequence (Q02156 whole entry, looked up): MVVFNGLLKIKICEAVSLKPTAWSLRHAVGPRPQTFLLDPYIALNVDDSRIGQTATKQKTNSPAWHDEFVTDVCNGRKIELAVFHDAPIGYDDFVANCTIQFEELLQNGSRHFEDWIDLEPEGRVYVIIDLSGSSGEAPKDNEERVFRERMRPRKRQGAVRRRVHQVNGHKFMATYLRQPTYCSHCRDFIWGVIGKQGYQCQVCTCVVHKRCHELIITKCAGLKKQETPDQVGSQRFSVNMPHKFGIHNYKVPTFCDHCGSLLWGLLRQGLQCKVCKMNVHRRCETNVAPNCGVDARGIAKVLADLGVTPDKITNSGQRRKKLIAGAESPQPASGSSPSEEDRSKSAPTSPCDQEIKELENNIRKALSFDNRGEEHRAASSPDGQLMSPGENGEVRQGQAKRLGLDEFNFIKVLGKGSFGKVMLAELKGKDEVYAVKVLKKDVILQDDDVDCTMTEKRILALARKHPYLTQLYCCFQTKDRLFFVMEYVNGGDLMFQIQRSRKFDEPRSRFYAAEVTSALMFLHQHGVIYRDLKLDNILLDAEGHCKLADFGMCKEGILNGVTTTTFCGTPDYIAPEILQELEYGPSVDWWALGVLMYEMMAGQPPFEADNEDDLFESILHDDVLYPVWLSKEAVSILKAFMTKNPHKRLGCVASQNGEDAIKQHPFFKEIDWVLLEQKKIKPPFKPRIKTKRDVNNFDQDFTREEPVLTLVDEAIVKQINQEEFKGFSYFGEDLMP
# assay-name: split-luciferase competition binding
# measurement-context: compound 10.0 µM
Label scheme for inhibition: lower than 5% is no (0), 5% and above is yes (1).

compound	tgt	label-class
O=C1NC(=O)c2c1c1c3ccccc3[nH]c1c1[nH]c3ccccc3c21	PRKCE (human) (UniProt Q02156)	yes (1)
COc1cc2ncnc(Nc3ccc(Cl)cc3F)c2cc1OC	PRKCE (human) (UniProt Q02156)	no (0)
N#C/C(=C\c1ccc(O)c(O)c1)C(N)=S	PRKCE (human) (UniProt Q02156)	no (0)

Exam item: Hi, just wondering whether CCN(CC)CCCCN1c2ccccc2Oc2ccc(Cl)cc21 shows inhibition of 5% or higher.
Marked response: no (0)

----------
# inhibition per record follows
# tgt: UniProt:Q02156
# assay-name: split-luciferase competition binding
# measurement-context: compound 10.0 µM
Respond with the bare value in %.

These solved cases illustrate the format of a correct answer.
molecule	unit-text	inhibition
O=C(c1ccc(Nc2nccc(-c3cc4ccccc4s3)n2)cc1)N1CCC(N2CCCC2)CC1	%	40
Oc1ccc(-c2nc(-c3ccc(F)cc3)c(-c3ccncc3)[nH]2)cc1	%	0

Next:
Record NC(=O)Nc1sc(-c2ccc(F)cc2)cc1C(N)=O . Reported inhibition: 19

----------
Listed here: items and their measured inhibition.
# tgt: PKN1 (human)
# assay-name: split-luciferase competition binding
# measurement-context: compound 10.0 µM
Answer in %, number only, no unit symbol.

Worked examples follow.
compound	value
C/C(O)=C(\C#N)C(=O)Nc1cc(Br)ccc1Br	0
Cc1ccccc1C(=O)c1ccc(Nc2ccc(Br)cc2N)cc1Cl	0
C=CC(=O)c1ccc2ccccc2c1	2
O=S(=O)(c1cccc2cnccc12)N1CCCNCC1	0
NC(=O)c1sc(-c2ccsc2)cc1N	0

Record CS(=O)c1ccc(-c2nc(-c3ccc(F)cc3)c(-c3ccncc3)[nH]2)cc1 (configuration not stated) . Reported inhibition: 0

Per the record, CS(=O)(=O)CCNCc1nc(-c2ccc3ncnc(Nc4ccc(OCc5cccc(F)c5)c(Cl)c4)c3c2)cs1 has inhibition of 0

So for Cc1ccc(NC(=O)c2cccc(N(C)C)c2)cc1NC(=O)c1ccc(O)cc1 , the logged inhibition turned out to be 0

Documented inhibition of O=c1cc(N2CCOCC2)nc2c3ccccc3ccn12 : 0

inhibition reading for N#C/C(=C\c1ccc(O)c(O)c1)C(=O)NCc1ccccc1 : 0

Data point: CC[C@@H](CO)Nc1nc(NCc2ccccc2)c2ncn(C(C)C)c2n1 ; inhibition = 0

----------
# tgt: RPS6KA4 KD1 (human) (UniProt O75676)
# Sequence (O75676 whole entry, looked up): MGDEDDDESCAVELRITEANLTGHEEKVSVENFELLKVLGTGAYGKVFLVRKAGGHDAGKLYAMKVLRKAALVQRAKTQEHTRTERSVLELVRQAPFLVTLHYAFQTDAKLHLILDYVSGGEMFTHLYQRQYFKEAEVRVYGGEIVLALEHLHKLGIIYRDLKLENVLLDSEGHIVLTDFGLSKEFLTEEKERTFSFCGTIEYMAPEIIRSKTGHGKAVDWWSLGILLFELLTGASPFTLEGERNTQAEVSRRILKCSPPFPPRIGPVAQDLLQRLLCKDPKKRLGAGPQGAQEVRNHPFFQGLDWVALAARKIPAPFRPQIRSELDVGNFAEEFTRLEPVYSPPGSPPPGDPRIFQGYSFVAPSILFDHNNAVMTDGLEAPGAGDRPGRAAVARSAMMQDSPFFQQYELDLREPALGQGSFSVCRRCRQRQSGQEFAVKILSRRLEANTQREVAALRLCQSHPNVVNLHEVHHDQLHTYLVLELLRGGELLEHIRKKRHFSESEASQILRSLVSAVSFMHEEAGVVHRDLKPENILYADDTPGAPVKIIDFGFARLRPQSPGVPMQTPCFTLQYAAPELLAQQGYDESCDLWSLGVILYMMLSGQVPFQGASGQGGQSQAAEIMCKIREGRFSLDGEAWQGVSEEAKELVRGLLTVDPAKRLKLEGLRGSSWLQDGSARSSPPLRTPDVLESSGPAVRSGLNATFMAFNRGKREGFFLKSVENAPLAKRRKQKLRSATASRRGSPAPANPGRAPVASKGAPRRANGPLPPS
# assay-name: split-luciferase competition binding
# measurement-context: compound 10.0 µM
readout-type: inhibition
Param answer (str): number followed by unit.

Study these solved cases before continuing.
molecule	inhibition
N#CC(=C(\N)Sc1ccccc1N)/C(C#N)=C(/N)Sc1ccccc1N	0%
N#C/C(=C(/N)Sc1ccc(N)cc1)c1ccccc1C(F)(F)F	0%
CC(C)N(CCC(=O)c1ccc2ccccc2c1)Cc1ccccc1	0%

response.value for Fc1ccc(Cl)cc1-c1nc(Nc2ccncc2)c2nccnc2n1 (field: inhibition) = 8%

Lab book: inhibition of Cc1cc(F)c(Nc2ncnc3cc(OCc4ccccc4)ccc23)cc1O noted as 0%

inhibition reading for CCN(CC)CCCCN1c2ccccc2Oc2ccc(Cl)cc21 : 0%

Kindly note the recorded inhibition for CC1=C(O)C(=O)[C@@H]2OC2C1=O (stereo partly drawn) , which is 0%

Measured inhibition of Cn1cc(C2=C(c3cn(CCCSC(=N)N)c4ccccc34)C(=O)NC2=O)c2ccccc21 : 56%

So for N#C/C(=C\c1ccc(O)c(O)c1)C(=O)NCc1ccccc1 , the logged inhibition turned out to be 0%

Field inhibition (entry CC(=O)c1c(O)c(C)c(O)c(Cc2c(O)c3c(c(C(=O)/C=C/c4ccccc4)c2O)OC(C)(C)C=C3)c1O ) reads 0%

Notebook: O=C1NC(=O)C(c2ccccc2[N+](=O)[O-])=C1Nc1ccc(O)c(Cl)c1 , inhibition read as 0%

Just so you know, measured inhibition for Cc1ccc(NC(=O)c2cccc(N(C)C)c2)cc1NC(=O)c1ccc(O)cc1 came out at 0%

// inhibition value for O=S(=O)(c1cccc2c(Cl)cccc12)N1CCCNCC1 : 0%

Measured inhibition of COc1cc(CC2C(=O)OC[C@@H]2Cc2ccc(OC)c(OC)c2)ccc1O (stereo partly drawn) : 0%

inhibition measured on COc1cc2ncnc(Nc3ccc(Cl)cc3F)c2cc1OC = 2%

Sure, the documented inhibition for O=C1NC(=O)c2cc(Nc3ccc(F)cc3)c(Nc3ccc(F)cc3)cc21 is 0%

Just so you know, measured inhibition for Cc1cc2nc3c(=O)[nH]c(=O)nc-3n(C)c2cc1C=O came out at 0%

According to the records, this molecule CN1CC[C@H](c2c(O)cc(O)c3c(=O)cc(-c4ccccc4Cl)oc23)[C@H](O)C1 displays inhibition of 23%

Entry NC(=O)c1ccc(-c2nc(-c3ccccn3)c(-c3ccc4c(c3)OCO4)[nH]2)cc1 , inhibition reported as 0%

Data point: C=CC(=O)c1ccc2ccccc2c1 ; inhibition = 0%

// recorded inhibition for Cc1ccc(-c2nn(C(C)(C)C)c3ncnc(N)c23)cc1 : 1%

inhibition for O=C1c2ccccc2-c2n[nH]c3cccc1c23 is 0%

For record Cn1cnc2c(NCc3ccccc3)nc(NCCO)nc21 the listed inhibition is 0%
